Data origin: paper PMC7529893

- studySystem: T1, GST-MAGE-A11 MHD (human MAGE-A11 MHD amino acid 218-429) (human, UniProt P43364 218-429)
- T1 construct: also called recombinant GST-MAGE-A11; source: E. coli BL21(DE3), purified (GSTrap, Resource Q)
- T1 sequence (looked up): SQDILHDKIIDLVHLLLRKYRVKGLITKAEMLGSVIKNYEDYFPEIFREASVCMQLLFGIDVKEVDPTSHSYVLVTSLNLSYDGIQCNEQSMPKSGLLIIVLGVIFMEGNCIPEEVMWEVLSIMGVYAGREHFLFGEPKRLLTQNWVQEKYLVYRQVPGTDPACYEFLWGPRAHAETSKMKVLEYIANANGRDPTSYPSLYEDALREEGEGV
- testMethodNotes: AlphaScreen or HTRF; TR-FRET competition: unlabelled peptide titrated against 200 nM FAM-PCF11_4, 5 nM Tb-anti-GST and 5 nM GST-MAGE-A11 MHD; 50 mM Tris pH 7.5, 20 mM MgCl2, 0.1 mg/ml BSA, 1 mM DTT; room temperature (~25 °C), 90 min
- measurementParameters: both partners purified
pIC50: −log10 of the molar value. Square brackets hold non-standard residues; d marks the D form. Ends that are not written are not given here. Phe(4-CN) = N#Cc1ccc(C[C@H](N)C(=O)O)cc1; Phe(3-Me) = Cc1cccc(C[C@H](N)C(=O)O)c1
# pIC50 annotations

binder | pIC50
FLVVVHQIRQL[Phe(4-CN)]Q (PCF11 degron, human; the phenylalanine at position 12 (F693) is 4-cyano-phenylalanine; also called 4-cyano-phenylalanine variant; source: synthetic peptide) [PCF11 peptide (FLVVVHQIRQLF*Q) containing 4-cyano-phenylalanine at position 12] | 6.18
FLVVVHQIRQL[Phe(3-Me)]Q (PCF11 degron, human; the phenylalanine at position 12 (F693) is 3-methyl-phenylalanine; also called 3-methyl-phenylalanine variant; source: synthetic peptide) [PCF11 peptide (FLVVVHQIRQLF*Q) containing 3-methyl-phenylalanine at position 12] | 8.77
